- System: PC-3 prostate
- PROCEDURE SUMMARY: NCI tumour cell line growth inhibition, 48 h; in the data active = GI50 below about 0.43 µM; inactive = the rest
Select the correct class. Options are y for active, n for inactive and nothing else.

Example entries begin here.
{"MOLECULE": "CCOC(=O)c1cc(C(=O)c2cc(OC)c(OC)c(OC)c2)n2nc(C)ccc12", "CAT": "y"}
{"MOLECULE": "O=Cc1cn(Cc2ccccc2)c2ccccc12", "CAT": "n"}
{"MOLECULE": "Cn1cc(C2=C(n3ccc4ccccc43)C(=O)NC2=O)c2ccccc21", "CAT": "n"}
{"MOLECULE": "COc1ccc(C(O)c2cc3c(N)c(C(=O)Nc4ccccc4)sc3nc2C)cc1 (centres undefined)", "CAT": "y"}
{"MOLECULE": "C#CC#CC#CC#CC#CC#CC#CC#CC[C@@H]1OC[C@H](COC(=O)O[C@@H](C(=O)O[C@H]2C[C@@]3(O)[C@@H](OC(=O)c4ccccc4)[C@@H]4[C@]5(OC(C)=O)CO[C@@H]5C[C@H](O)[C@@]4(C)C(=O)[C@H](OC(C)=O)C(=C2C)C3(C)C)[C@@H](NC(=O)c2ccccc2)c2ccccc2)O1", "CAT": "n"}

*Q* Lab log entry: O=C1C=CC2(NN=C(c3ccccc3)N2c2ccccc2)c2cccc(O)c21 (centres undefined) — outcome as called in the assay?
*A* n

*Q* Write down the call the test reported for this molecule. Item: `COc1cc2nccc(Oc3ccc(NC(=O)C4(C(=O)Nc5ccc(F)cc5)CC4)cc3)c2cc1OC(=O)c1ccc(N)cc1`
*A* n

*Q* Assay outcome for `O=c1[nH]nc(-c2nn(-c3ccc(Cl)cc3)cc2O)o1` : what was it?
*A* y

*Q* Assay outcome for `O=C1NC(=NCc2c(Cl)cccc2Cl)S/C1=C\c1ccc2ncccc2c1` : what was it?
*A* n

###

- Tested on: OVCAR-5 ovarian
- PROCEDURE SUMMARY: NCI tumour cell line growth inhibition, 48 h
PARAMETER: TGI

{"COMPOUND": "CN1CCN(Cc2nc3cccc4c3c([n+]2[O-])-c2ccccc2-4)CC1", "TGI": "> 100 µM"}
{"COMPOUND": "CCCCNC(=O)OCCN=C1c2ccccc2C(Br)C(Br)c2ccccc21 (configuration not stated)", "TGI": "> 100 µM"}
{"COMPOUND": "C/C(=N\\Nc1nc2ccccc2o1)c1ccc2ccccc2n1", "TGI": "> 100 µM"}
{"COMPOUND": "COC(=O)Nc1nc2ccc(NS(=O)(=O)c3ccc(Cl)cc3)cc2[nH]1", "TGI": "44.6 µM"}
{"COMPOUND": "O=C(O)C(CO)N=Cc1nc(-c2ccccc2)oc1O (configuration not stated)", "TGI": "> 100 µM"}
{"COMPOUND": "O=C(CCC1CCCCC1)NCc1ccc(C(=O)O)cc1", "TGI": "> 100 µM"}
{"COMPOUND": "CCOP(=O)(OCC)C(C)(CC)NC1=NC(C(F)(F)F)(C(F)(F)F)NC(=O)N1 (configuration not stated)", "TGI": "> 100 µM"}
{"COMPOUND": "C=C(C)[C@@H]1CC[C@]2(C(N)=O)CC[C@]3(C)[C@H](CC[C@@H]4[C@@]5(C)C/C(=C/c6cccnc6)C(=O)C(C)(C)[C@@H]5CC[C@]43C)[C@@H]12", "TGI": "39.7 µM"}
{"COMPOUND": "CCCCc1ccc(Nc2nc3c(ncn3COCCBr)c(=O)[nH]2)cc1", "TGI": "> 100 µM"}
{"COMPOUND": "Cc1ccc(S(=O)(=O)NC2CCCCO2)cc1 (configuration not stated)", "TGI": "> 100 µM"}

Please give TGI, item by item, for the list that follows.
1. COC(=O)N[C@H]1C=C[C@@H]2/C=C(C)/C=C/[C@@H](C)[C@H]([C@H](C)[C@H](O)[C@@H](C)NC(C)=O)OC(=O)/C=C/C=C(C)\C=C\[C@]2(C)C1
2. CC[C@@]1(C[C@H]2C[C@@]3(C(=O)OC)c4[nH]c5ccccc5c4CCN3C2=S)COC2(CCCCC2)O1
3. CCOC(=O)C(C(=O)OCC)C1C=CCC2c3ccccc3COCC21 (configuration not stated)
4. CCOc1ccccc1C(=O)/C=C/c1cc2ccccc2[nH]c1=O
5. Nc1nc2c3c(ncn3CC(O)CO2)n1 (configuration not stated)
6. O=C1/C(=C/c2ccc(Cl)cc2)N=C(c2ccccc2)N1c1nc2ccc(Sc3ccccc3)cc2[nH]1
7. CN1CCC(CN2c3ccccc3Sc3ccccc32)C1 (configuration not stated)
8. CC(C)(C(=O)NCC(F)(F)C(F)(F)F)C(=O)N[C@@H]1C(=O)Nc2ccccc2-c2ccccc21

*A*
["> 45.3 µM", "> 100 µM", "> 100 µM", "1.44 µM", "> 100 µM", "> 100 µM", "31.8 µM", "> 100 µM"]
